- SUBJECT_OF_TEST: Jak2 (UniProt O60674)
- Sequence (O60674 whole entry, looked up): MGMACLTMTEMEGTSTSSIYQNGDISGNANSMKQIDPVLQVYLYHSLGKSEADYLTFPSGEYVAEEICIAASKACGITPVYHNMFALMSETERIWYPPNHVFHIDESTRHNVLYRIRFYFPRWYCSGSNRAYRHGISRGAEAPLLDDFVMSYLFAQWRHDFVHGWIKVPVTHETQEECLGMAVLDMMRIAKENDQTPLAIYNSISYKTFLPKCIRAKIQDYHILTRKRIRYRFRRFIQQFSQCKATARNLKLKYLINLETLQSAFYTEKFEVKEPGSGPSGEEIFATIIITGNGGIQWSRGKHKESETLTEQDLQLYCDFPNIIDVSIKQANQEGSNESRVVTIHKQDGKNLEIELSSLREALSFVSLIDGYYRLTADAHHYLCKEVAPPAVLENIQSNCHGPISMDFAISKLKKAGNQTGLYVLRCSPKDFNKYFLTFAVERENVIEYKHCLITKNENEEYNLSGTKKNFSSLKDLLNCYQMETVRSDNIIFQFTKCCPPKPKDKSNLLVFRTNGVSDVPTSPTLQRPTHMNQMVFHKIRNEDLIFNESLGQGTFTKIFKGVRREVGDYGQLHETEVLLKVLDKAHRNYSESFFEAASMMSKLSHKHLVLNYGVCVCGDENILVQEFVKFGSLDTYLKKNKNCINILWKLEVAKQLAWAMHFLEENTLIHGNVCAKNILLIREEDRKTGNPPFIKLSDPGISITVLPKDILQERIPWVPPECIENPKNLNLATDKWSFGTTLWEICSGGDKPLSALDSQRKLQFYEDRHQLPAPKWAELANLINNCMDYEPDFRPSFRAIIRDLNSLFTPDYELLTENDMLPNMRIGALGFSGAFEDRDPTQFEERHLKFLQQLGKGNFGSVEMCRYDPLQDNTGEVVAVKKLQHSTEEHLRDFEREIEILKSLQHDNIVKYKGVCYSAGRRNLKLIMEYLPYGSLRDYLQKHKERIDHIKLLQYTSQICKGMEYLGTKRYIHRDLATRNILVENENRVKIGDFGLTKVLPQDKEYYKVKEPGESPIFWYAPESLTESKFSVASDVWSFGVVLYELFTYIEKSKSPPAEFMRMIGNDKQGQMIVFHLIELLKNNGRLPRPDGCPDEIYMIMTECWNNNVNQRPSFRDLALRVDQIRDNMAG
- ASSAY_REMARKS: phosphorylation enrichment, bacterial display (enrichment ratio); higher = better substrate or ligand; peptides without Tyr show the background;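 further: 11-residue human phosphosite peptides and single-mutation variants displayed on the E. coli surface, counted by deep sequencing, each peptide's frequency after selection divided by its frequency in the unselected input library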;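 further: frequency after pTyr selection over input frequency; kinase dosed for 20-30% of maximal phosphorylation in three min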

SEQUENCE_CODE	phosphorylation enrichment
PYSSPYENSLI [EPOR_Y489_N487S]	0.929
AGVIIYTSRFQ [PFAS_Y538_A535V]	0.87
ATCKAYGQALA [TKT_Y321_R318C]	0.645
MKSIKYMDKEV [CCDC60_Y41_I46V]	0.567
QYNMQYSSSAA [ERBB2IP_Y981_I979M]	0.956
ANVIHYFPTQA [SLC25A4_Y81_R80H]	0.794
NQDRTYFERVR [SPEN_Y632_S635R_YF]	0.601
AIGCEYSEINI [SIGLEC12_Y588_Y586C]	0.924
